# subject-of-test: PARP-1 (Homo sapiens, UniProt P09874)
# Construct: purchased BPS Bioscience 80569
# Sequence (P09874 whole entry): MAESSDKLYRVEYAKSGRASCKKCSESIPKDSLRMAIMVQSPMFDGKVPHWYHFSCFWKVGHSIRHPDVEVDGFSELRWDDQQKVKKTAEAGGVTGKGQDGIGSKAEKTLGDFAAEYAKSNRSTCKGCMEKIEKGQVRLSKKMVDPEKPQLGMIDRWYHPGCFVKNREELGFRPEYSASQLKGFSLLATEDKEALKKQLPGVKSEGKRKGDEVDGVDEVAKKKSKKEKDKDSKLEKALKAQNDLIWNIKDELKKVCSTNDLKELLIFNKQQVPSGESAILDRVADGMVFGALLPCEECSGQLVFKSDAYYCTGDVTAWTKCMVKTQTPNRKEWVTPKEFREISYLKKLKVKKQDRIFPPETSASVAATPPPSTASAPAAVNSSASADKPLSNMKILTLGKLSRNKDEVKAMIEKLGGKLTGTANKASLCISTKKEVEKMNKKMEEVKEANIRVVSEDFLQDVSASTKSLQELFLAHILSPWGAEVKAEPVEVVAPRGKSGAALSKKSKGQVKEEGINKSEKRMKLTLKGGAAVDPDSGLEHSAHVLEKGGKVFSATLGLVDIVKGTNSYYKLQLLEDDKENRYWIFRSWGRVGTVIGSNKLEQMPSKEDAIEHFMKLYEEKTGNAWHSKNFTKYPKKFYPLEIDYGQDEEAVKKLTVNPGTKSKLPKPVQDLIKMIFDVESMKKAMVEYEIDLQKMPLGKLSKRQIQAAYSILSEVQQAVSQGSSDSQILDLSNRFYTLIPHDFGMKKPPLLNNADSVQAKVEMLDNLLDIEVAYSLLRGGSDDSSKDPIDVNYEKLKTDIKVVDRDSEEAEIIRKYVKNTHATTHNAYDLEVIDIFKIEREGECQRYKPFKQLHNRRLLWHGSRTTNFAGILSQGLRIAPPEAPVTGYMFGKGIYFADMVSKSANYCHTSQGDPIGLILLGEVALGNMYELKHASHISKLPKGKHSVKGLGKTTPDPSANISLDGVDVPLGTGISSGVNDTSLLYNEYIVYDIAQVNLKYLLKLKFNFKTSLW
# experimental-details: PARP-1 inhibition assay (PARP-1 Chemiluminescent Assay Kit, BPS Bioscience)
# Assay type: biochemical
# study-conditions: 10 nM compound; read-out: PARP-1 Inhibition % (10 nM)
readout-kind: inhibition at 0.01 µM (%)

compound | units-text | observed
NC(=O)c1cccc2[nH]c(C3CCN(CCC(=O)c4ccccc4)C3)nc12 (stereo not drawn) | % | 68
NC(=O)c1cccc2[nH]c(C3CCN(CCCNc4ccccc4)C3)nc12 (stereo not drawn) | % | 47.5
NCCN1CCC(c2nc3c(C(N)=O)cccc3[nH]2)C1 (stereo not drawn) | % | 24.8
NC(=O)c1cccc2[nH]c(C3CCN(CCN4C(=O)c5ccccc5C4=O)C3)nc12 (stereo not drawn) | % | 6
NC(=O)c1cccc2[nH]c(C3CCN(CCC(=O)Nc4ccccc4)C3)nc12 (stereo not drawn) | % | 19.9
NC(=O)c1cccc2[nH]c(C3CCN(CC(=O)Nc4ccccc4)C3)nc12 (stereo not drawn) | % | 17.6
NC(=O)c1cccc2[nH]c(C3CCN(CC(=O)c4ccccc4)C3)nc12 (stereo not drawn) | % | -1.1
COc1ccc(C(=O)CCN2CCC(c3nc4c(C(N)=O)cccc4[nH]3)C2)cc1 (stereo not drawn) | % | 59.2
NCCCN1CCC(c2nc3c(C(N)=O)cccc3[nH]2)C1 (stereo not drawn) | % | 26.8
NC(=O)c1cccc2[nH]c(C3CCN(CCCNC(=O)c4ccccc4)C3)nc12 (stereo not drawn) | % | 19.4
NC(=O)c1cccc2[nH]c(C3CCN(CCCN4C(=O)c5ccccc5C4=O)C3)nc12 (stereo not drawn) | % | 22
NC(=O)c1cccc2[nH]c(C3CCN(CCNC(=O)c4ccccc4)C3)nc12 (stereo not drawn) | % | 38.4
NC(=O)c1cccc2[nH]c(C3CCN(CC(O)c4ccccc4)C3)nc12 (stereo not drawn) | % | 5
NC(=O)c1cccc2[nH]c(C3CCN(CCC(=O)c4ccc(Cl)cc4)C3)nc12 (stereo not drawn) | % | 65.7
NC(=O)c1cccc2[nH]c(C3CCN(CCCC(=O)c4ccccc4)C3)nc12 (stereo not drawn) | % | 42.8

The values you see were collected from paper PMC6572064.
